Source: the Kinase Knowledgebase extract (Sharma et al. 2016)

Listing of recorded pIC50 by entry.
- tgt: MAPK14 (human)
- method_summary: Inhibition of MAPK14 Kinase Activity
pIC50: −log10 of the molar value.
readout_label: pIC50

entry_smiles=CN(C)C=NC(=O)OCc1ccc(N(C(N)=O)c2c(F)cccc2F)nc1-c1ccc(F)cc1F number=6.00
entry_smiles=CC(C)[C@H](N)C(=O)OCCNC(=O)OCc1ccc(N(C(N)=O)c2c(F)cccc2F)nc1-c1ccc(F)cc1F number=7.51
entry_smiles=CN(C)C=NC(=O)OCc1ccc(N(C(=O)N=CN(C)C)c2c(F)cccc2F)nc1-c1ccc(F)cc1F number=5.30

---

Listing of recorded IC50 by entry.
- tgt: MAPK14 (human)
- method_summary: Inhibition of IL-6 Release in LPS Stimulated Whole Blood Cells
readout_label: IC50 (nM)

entry_smiles=CC(C)[C@H](N)C(=O)OCCNC(=O)OCc1ccc(N(C(N)=O)c2c(F)cccc2F)nc1-c1ccc(F)cc1F readout_label=IC50 number=83
entry_smiles=CN(C)C=NC(=O)OCc1ccc(N(C(N)=O)c2c(F)cccc2F)nc1-c1ccc(F)cc1F readout_label=IC50 number=11000
entry_smiles=CN(C)C=NC(=O)OCc1ccc(N(C(=O)N=CN(C)C)c2c(F)cccc2F)nc1-c1ccc(F)cc1F readout_label=IC50 number=800
